Biological target: MSLN expressed on the cell surface of human cancer cell lines N87 and H226 (human, UniProt Q13421 37-598)
Experiment: cell-based or functional assay
# Lookup of reported IgG1-vcMMAE IC50 (nM), cell viability of N87 cells keyed by entry
Measurement type: IgG1-vcMMAE IC50 (nM), cell viability of N87 cells

1. CHS5-vcMMAE (antibody, V domains shown, also called CHS5 IgG1-vcMMAE) VH: EVQLVESGGGLVQPGGSLRLSCAASGFTITDRTIHWVRQAPGKGLEWVASIFPTKGVTTYADSVKGRFTISADTSKNTAYLQMNSLRAEDTAVYYCARGRYWMDYWGQGTLVTVSS VL: DIQMTQSPSSLSASVGDRVTITCRASQDVKEGVAWYQQKPGKAPKLLIDQSHRLYSGVPSRFSGSGSGTDFTLTISSLQPEDFATYYCQQYYAWPSTFGQGTKVEIKR; 15 nM
2. CHS7-vcMMAE (antibody, V domains shown, also called CHS7 IgG1-vcMMAE) VH: EVQLVESGGGLVQPGGSLRLSCAASGFTIDKEAIHWVRQAPGKGLEWVASIYPHSGFTLYADSVKGRFTISADTSKNTAYLQMNSLRAEDTAVYYCARGRYWMDYWGQGTLVTVSS VL: DIQMTQSPSSLSASVGDRVTITCRASQDVEDGVAWYQQKPGKAPKLLIGIKDLLYSGVPSRFSGSGSGTDFTLTISSLQPEDFATYYCQQYYRWPSTFGQGTKVEIKR; 25.9 nM
3. ALA12-vcMMAE (antibody, V domains shown, also called ALA12 IgG1-vcMMAE) VH: EVQLVESGGGLVQPGGSLRLSCAASGFTIGNWTIHWVRQAPGKGLEWVALIWPESGATLYADSVKGRFTISADTSKNTAYLQMNSLRAEDTAVYYCARGRYWMDYWGQGTLVTVSS VL: DIQMTQSPSSLSASVGDRVTITCRASQDVRDGVAWYQQKPGKAPKLLIDQMVRLYSGVPSRFSGSGSGTDFTLTISSLQPEDFATYYCQQYFNWPVTFGQGTKVEIKR; 39.9 nM
4. CHS8-vcMMAE (antibody, V domains shown, also called CHS8 IgG1-vcMMAE) VH: EVQLVESGGGLVQPGGSLRLSCAASGFTISKASIHWVRQAPGKGLEWVASIWPTKGFTTYADSVKGRFTISADTSKNTAYLQMNSLRAEDTAVYYCARGRYWLDYWGQGTLVTVSS VL: DIQMTQSPSSLSASVGDRVTITCRASQDVKEGVAWYQQKPGKAPKLLIDERERLYSGVPSRFSGSGSGTDFTLTISSLQPEDFATYYCQQYNTWPATFGQGTKVEIKR; 24.6 nM
